Recorded growth values for a group of molecules are listed next.
System: SF-268 CNS
PROTOCOL: NCI-60 one-dose screen, 48 h (100 = growth as untreated, 0 = no growth, -100 = all killed)
MEASUREMENT_PARAMETERS: 10 µM unless noted
About 83,000 compounds went through this panel and 20% of them were active in at least one assay; those are over-represented in the sample as a whole.

- MOLECULE: "COc1cc(-c2nc3cc(Cl)c(Cl)cc3[nH]2)ccc1OCC(=O)N=Nc1c(O)[nH]c2ccc([N+](=O)[O-])cc12"
  UNIT_DESCRIPTOR: "%"
  growth: 81.4
- MOLECULE: "O=C(c1cc2ccccc2o1)c1nn(-c2ccccc2)/c(=N/N=Cc2cn(-c3ccccc3)nc2-c2cc3ccccc3oc2=O)s1"
  UNIT_DESCRIPTOR: "%"
  growth: 96.8
- MOLECULE: "O=C(c1ccc(-c2ccccc2)cc1)c1ccc([N+](=O)[O-])cc1"
  UNIT_DESCRIPTOR: "%"
  growth: 102
- MOLECULE: "CCOC(=O)c1c(C)nc2c(c1N)CC(=O)N2Cc1cc(F)cc(Cl)c1"
  UNIT_DESCRIPTOR: "%"
  growth: 95.8
- MOLECULE: "N#CC1C=CN(CC(N)=O)c2ccc3cccnc3c21 (stereo not given)"
  UNIT_DESCRIPTOR: "%"
  growth: 105

====

System: M14 melanoma
PROTOCOL: NCI-60 one-dose screen, 48 h (100 = growth as untreated, 0 = no growth, -100 = all killed)
MEASUREMENT_PARAMETERS: 10 µM unless noted
The panel holds about 83,000 compounds, 20% with a hit somewhere; the sample as a whole holds those more often.
growth less than 20% is satisfied; growth greater than or equal to 20% is not satisfied.

- COMPOUND: "Cc1nn(-c2ccccc2)c(Oc2ccccn2)c1-c1nc2ccccc2s1"
  CLASS: "not satisfied"
- COMPOUND: "CCCCCCNC(=O)Oc1ccc(/C(=C(/C)Cc2ccc(OC)cc2)c2ccc(OCCCN(C)C)cc2)cc1"
  CLASS: "satisfied"
- COMPOUND: "O=C(O)/C(=C\\c1ccc(Cl)cc1)c1ccc(Cl)cc1"
  CLASS: "not satisfied"
- COMPOUND: "CCCCCCCCCCCCCCCCCCOc1ccccc1CC(=O)OCC[N+]1(C)CCCC1"
  CLASS: "not satisfied"

====

# growth listing for each entry below
Test system: NCI-H322M lung
PROTOCOL: NCI-60 one-dose screen, 48 h (100 = growth as untreated, 0 = no growth, -100 = all killed)
MEASUREMENT_PARAMETERS: 10 µM unless noted
Compounds without any hit were thinned out: in the full panel of roughly 83,000, 20% have a hit. The source made the active and inactive calls. How the source made its calls: active means growth percent below 10; inactive means the rest.
ATTRIBUTE_MEASURED: growth

- MOLECULE: "Cn1c(-c2ccc(Br)cc2)c(O)c(=O)c2c(F)cccc21"
  OBSERVED_MEASUREMENT: "53.5% (inactive)"
- MOLECULE: "CCC(C)N(c1ccc(Cl)cc1)c1nc(-c2ccc(Br)cc2)cs1 (centres undefined)"
  OBSERVED_MEASUREMENT: "91.4% (inactive)"
- MOLECULE: "CC1(c2ccccc2O)NN=C(/N=C/c2cccc([N+](=O)[O-])c2)N1C(Cc1c[nH]c2ccccc12)C(=O)O (centres undefined)"
  OBSERVED_MEASUREMENT: "97.6% (inactive)"
- MOLECULE: "Cc1nc2sc(C(=O)Nc3cccc(Cl)c3C)c(N)c2cc1C(=O)c1ccccc1"
  OBSERVED_MEASUREMENT: "49.8% (inactive)"
- MOLECULE: "CC1(C)c2[nH]c3ccccc3c2C[C@]2(C)[C@H]3CC=C4[C@@H]5C[C@@](C)(C(N)=O)CC[C@]5(C)CC[C@@]4(C)[C@]3(C)CC[C@@H]12"
  OBSERVED_MEASUREMENT: "76.1% (inactive)"
- MOLECULE: "O=C1c2cccnc2C(=O)c2c1c(C(=O)NCCn1ccnc1)c1ccccn21"
  OBSERVED_MEASUREMENT: "22.3% (inactive)"
- MOLECULE: "CC(C)(C)n1cc(-c2ccnc(NCCNS(=O)(=O)c3cccc(F)c3)c2)c(-c2ccccc2)n1"
  OBSERVED_MEASUREMENT: "97.8% (inactive)"
- MOLECULE: "CCOc1ccc(NC(=O)CSc2oc(-c3ccccc3)nc2S(=O)(=O)c2ccc(F)cc2)cc1"
  OBSERVED_MEASUREMENT: "75.5% (inactive)"
- MOLECULE: "O=C(NCCCCNC(=O)OCc1ccc2c(Cl)cc(Cl)c(O)c2n1)OCc1ccc2c(Cl)cc(Cl)c(O)c2n1"
  OBSERVED_MEASUREMENT: "34.3% (inactive)"
- MOLECULE: "COc1ccc(-c2nc3c(c(-c4ccccc4)nn3-c3ccccc3)c(-c3ccc(N4CCN(C)CC4)cc3)c2C#N)cc1"
  OBSERVED_MEASUREMENT: "97.5% (inactive)"
- MOLECULE: "O=C(c1ccc(-c2nc(CSc3nc4ccccc4s3)no2)cc1)N1CCSCC1"
  OBSERVED_MEASUREMENT: "100% (inactive)"
- MOLECULE: "COc1ccc2[nH]cc(-c3nc(-c4cn(C)c5c(Cl)nccc45)cs3)c2c1"
  OBSERVED_MEASUREMENT: "75.5% (inactive)"
- MOLECULE: "CCOC(=O)c1cn2ncnc(Oc3ccc(NC(=O)NC4CCCCC4)c(Cl)c3)c2c1C"
  OBSERVED_MEASUREMENT: "85.2% (inactive)"
- MOLECULE: "COc1ccc(/C=C2\\C(=O)N=C3N2NC(c2cc(Br)ccc2O)C=C(C)N3c2ccccc2)cc1 (centres undefined)"
  OBSERVED_MEASUREMENT: "97.3% (inactive)"
- MOLECULE: "O=C1c2ccc3c4ccc5c6c(ccc(c7ccc(c2c37)C(=O)N1CCC[P+](c1ccccc1)(c1ccccc1)c1ccccc1)c64)C(=O)N(CCC[P+](c1ccccc1)(c1ccccc1)c1ccccc1)C5=O"
  OBSERVED_MEASUREMENT: "84.2% (inactive)"
- MOLECULE: "CCN(CC)C(=S)SC(SC(=S)N(CC)CC)C(=O)c1nnn(-c2ccc([N+](=O)[O-])cc2)c1C"
  OBSERVED_MEASUREMENT: "98.5% (inactive)"
- MOLECULE: "C[C@@H]1CCC[C@H]1CC(N)C(=O)O (some centres undefined)"
  OBSERVED_MEASUREMENT: "106% (inactive)"
- MOLECULE: "CCCCCOc1ccc(C(=O)/C(Br)=C/C(=O)O)cc1"
  OBSERVED_MEASUREMENT: "104% (inactive)"
- MOLECULE: "O=C(O)/C(=C\\c1ccc(Cl)cc1)c1ccc(Cl)cc1"
  OBSERVED_MEASUREMENT: "92.2% (inactive)"
- MOLECULE: "O=C(O)CCCN1C(=O)/C(=C/C(Cl)=C/c2ccccc2)SC1=S"
  OBSERVED_MEASUREMENT: "77.2% (inactive)"
- MOLECULE: "N#C/C(=C/c1ccc([N+](=O)[O-])cc1)n1nnc2cc(F)c(F)cc21"
  OBSERVED_MEASUREMENT: "98.4% (inactive)"
- MOLECULE: "COc1ccc(C2=Nc3c/c(=C\\c4c(O)[nH]c5ccc(Cl)cc45)ccc3=N2)cc1"
  OBSERVED_MEASUREMENT: "81.9% (inactive)"
- MOLECULE: "CC(=O)c1cc(O)c2ccccc2c1O"
  OBSERVED_MEASUREMENT: "105% (inactive)"
- MOLECULE: "CCN(CC)c1nc(SCc2ccccc2Cl)ncc1C"
  OBSERVED_MEASUREMENT: "121% (inactive)"
- MOLECULE: "CO/N=C(/C)c1ccc(NC(=O)CSc2nnc(-c3ccncc3)n2-c2ccccc2)cc1"
  OBSERVED_MEASUREMENT: "84.9% (inactive)"
- MOLECULE: "O=C(OCc1ccc2cccc(O)c2n1)N1CCN(C(=O)c2cc3cc(F)ccc3[nH]2)CC1"
  OBSERVED_MEASUREMENT: "60% (inactive)"
- MOLECULE: "COc1cccc(NC(=O)Cn2cc(CN3CCN(c4ccnc5cc(Cl)ccc45)CC3)nn2)c1"
  OBSERVED_MEASUREMENT: "91.2% (inactive)"
- MOLECULE: "Cc1ccccc1NC(=O)c1sc2nc(C)c(C(=O)/C=C/c3ccccc3)cc2c1N"
  OBSERVED_MEASUREMENT: "55.5% (inactive)"
- MOLECULE: "CCCNC(=O)Oc1ccc(/C(=C(/C)Cc2ccc(OC)cc2)c2ccc(OCCCN(C)C)cc2)cc1"
  OBSERVED_MEASUREMENT: "88.3% (inactive)"
- MOLECULE: "Cc1cccc(Cl)c1NC(=O)c1ccc2nc(NC(=O)NCCN(C)C)sc2c1"
  OBSERVED_MEASUREMENT: "101% (inactive)"
- MOLECULE: "COc1ccc(OC)c(C(=O)/C=C/c2cc3c(c(OC)c2OC)OCO3)c1"
  OBSERVED_MEASUREMENT: "71.1% (inactive)"
- MOLECULE: "Cc1ccc(/C=C2\\CN(C(=O)OC(C)(C)C)C/C(=C\\c3ccc(C)cc3)C2=O)cc1"
  OBSERVED_MEASUREMENT: "98.7% (inactive)"
- MOLECULE: "N=C(N)c1ccc(-c2ccc(-c3ccc(F)cc3)o2)o1"
  OBSERVED_MEASUREMENT: "42.4% (inactive)"
- MOLECULE: "Cc1ccc(Cc2cnc(NC(=O)c3cc(Br)cs3)s2)cc1"
  OBSERVED_MEASUREMENT: "79.7% (inactive)"
- MOLECULE: "COP(=O)(OC)C(C)(C)CC(=O)CC(C#N)(C#N)C(C#N)C#N"
  OBSERVED_MEASUREMENT: "99.3% (inactive)"
- MOLECULE: "CCN1C(=O)N(CC)C2C1NN=c1s/c(=C\\c3ccc(Cl)cc3Cl)c(=O)n12 (centres undefined)"
  OBSERVED_MEASUREMENT: "42.4% (inactive)"
- MOLECULE: "CCOC(=O)c1cc(-c2ccc([N+](=O)[O-])cc2)n(-c2ccc(C(=O)O)c(O)c2)c1C"
  OBSERVED_MEASUREMENT: "103% (inactive)"
- MOLECULE: "C#COc1cccc(Nc2ncnc3ncc(NC(=O)CCl)cc23)c1"
  OBSERVED_MEASUREMENT: "59.4% [6.25 µM] (inactive)"
- MOLECULE: "COC(=O)CNC(=O)[C@H](Cc1ccccc1)NCc1ccncc1"
  OBSERVED_MEASUREMENT: "101% (inactive)"
